Assayed system: TrkA kinase (Homo sapiens)
Construct: purchased Upstate, USA
Run description: In vitro TrkA inhibitory activity using TR-FRET assay
Format: biochemical
Reported conditions: 5 ng TrkA, 500 μM ATP, values given as bins, read-out: TrkA inhibition in-vitro IC50
pIC50: −log10 of the molar value.
Overview of reported pIC50 across a group of compounds:

| Compound | pIC50 |
| --- | --- |
| CN(CC(F)(F)F)S(=O)(=O)NC(=O)c1cnc2ccc(N3CCC[C@@H]3c3cc(F)ccc3F)cn12 [Example 41] | ≥ 7.30 |
| CN(CCF)S(=O)(=O)NC(=O)c1cnc2ccc(N3CCCC3c3cc(F)cc4c3OCCO4)cn12 (single isomer, unassigned) [Example 71] | 6.30 to 7.00 |
| CCCN(C)S(=O)(=O)NC(=O)c1cnc2ccc(N3CCC[C@@H]3c3cc(F)ccc3OC)cn12 [Example 53] | 7.00 to 7.30 |
| CCCN(C)S(=O)(=O)NC(=O)c1cnc2ccc(N3CCC[C@@H]3c3cc(F)ccc3O[C@@H]3CCOC3)cn12 [Example 107] | ≥ 7.30 |
| Cc1ccc(N(C)S(=O)(=O)NC(=O)c2cnc3ccc(N4CCC[C@@H]4c4cc(F)ccc4OC4CCOCC4)cn23)nn1 [Example 87] | ≥ 7.30 |
| CCN(C)S(=O)(=O)NC(=O)c1cnc2ccc(N3CCC[C@@H]3c3cc(F)ccc3OC)cn12 [Example 55] | ≥ 7.30 |
| COCCN(C)S(=O)(=O)NC(=O)c1cnc2ccc(N3C[C@@H](F)C[C@@H]3c3cc(F)ccc3OC3CCOCC3)cn12 [Example 89] | ≥ 7.30 |

###

Assayed system: TrkA kinase (Homo sapiens, UniProt P04629)
Construct: purchased Upstate, USA
Sequence (P04629 33-796): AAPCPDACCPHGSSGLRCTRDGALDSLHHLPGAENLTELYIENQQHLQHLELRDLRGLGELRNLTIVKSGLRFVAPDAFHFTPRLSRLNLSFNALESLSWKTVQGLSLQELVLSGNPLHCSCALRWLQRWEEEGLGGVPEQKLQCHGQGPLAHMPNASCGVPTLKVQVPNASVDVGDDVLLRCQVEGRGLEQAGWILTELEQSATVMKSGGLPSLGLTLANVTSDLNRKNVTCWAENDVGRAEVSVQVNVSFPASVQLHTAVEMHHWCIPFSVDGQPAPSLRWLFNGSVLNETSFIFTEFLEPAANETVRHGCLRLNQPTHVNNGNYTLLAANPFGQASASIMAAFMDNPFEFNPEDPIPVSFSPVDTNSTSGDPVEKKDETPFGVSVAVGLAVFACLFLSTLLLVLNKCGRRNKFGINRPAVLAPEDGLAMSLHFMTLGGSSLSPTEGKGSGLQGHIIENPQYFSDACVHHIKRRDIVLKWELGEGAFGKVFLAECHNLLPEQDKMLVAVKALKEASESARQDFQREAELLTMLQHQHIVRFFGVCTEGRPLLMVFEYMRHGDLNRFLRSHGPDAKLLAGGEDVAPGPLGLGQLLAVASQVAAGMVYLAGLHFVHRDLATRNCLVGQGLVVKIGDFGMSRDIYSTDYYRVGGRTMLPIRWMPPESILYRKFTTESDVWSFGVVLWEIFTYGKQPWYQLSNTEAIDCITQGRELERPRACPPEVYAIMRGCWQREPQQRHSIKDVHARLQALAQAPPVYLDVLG
Run description: In vitro TrkA inhibitory activity using TR-FRET assay
Type: biochemical
Reported conditions: 5 ng TrkA, 500 μM ATP, values given as bins, read-out: TrkA inhibition in-vitro IC50
Overview of reported IC50 across a group of compounds:
Property name: IC50

| Compound | Property name | Readout value |
| --- | --- | --- |
| O=C(c1cnc2ccc(N3CCCC3c3cc(F)ccc3F)cn12)N1CC[C@H](O)C1 (some centres unmarked) | IC50 | ≤ 50 nM |
| CN(c1ccccn1)S(=O)(=O)NC(=O)c1cnc2ccc(N3CCC[C@@H]3c3cc(F)ccc3OC3CCOCC3)cn12 | IC50 | ≤ 50 nM |
| CN(CCF)S(=O)(=O)NC(=O)c1cnc2ccc(N3CCC[C@@H]3c3cc(F)ccc3F)cn12 | IC50 | ≤ 50 nM |
| O=C(c1ccc(F)cc1)c1cnc2ccc(N3CCCC3c3cc(F)ccc3F)cn12 (centres unmarked) | IC50 | 50 to 100 nM |
| CC1(S(=O)(=O)NC(=O)c2cnc3ccc(N4CCCCC4c4cc(F)ccc4F)cn23)CC1 (single isomer, unassigned) | IC50 | ≤ 50 nM |
| CN(c1nncs1)S(=O)(=O)NC(=O)c1cnc2ccc(N3CCC[C@@H]3c3cc(F)ccc3OC3CCOCC3)cn12 | IC50 | ≤ 50 nM |
| CCN(C)S(=O)(=O)NC(=O)c1cnc2ccc(N3CCC[C@@H]3c3cc(F)ccc3F)cn12 | IC50 | ≤ 50 nM |
| CN(c1ccccn1)S(=O)(=O)NC(=O)c1cnc2ccc(N3CCC[C@@H]3c3cc(F)ccc3F)cn12 | IC50 | ≤ 50 nM |
| CCOC(=O)CNC(=O)c1cnc2ccc(N3CCC[C@H]3c3cc(F)ccc3F)cn12 (single isomer, unassigned) | IC50 | 100 to 500 nM |
| CC(C)(C)S(=O)(=O)NC(=O)c1cnc2ccc(N3C[C@@H](F)C[C@@H]3c3cc(F)ccc3OC3CCOCC3)cn12 | IC50 | 50 to 100 nM |
| CC(C)(C)S(=O)(=O)NC(=O)c1cnc2ccc(N3CCC[C@@H]3c3cc(F)ccc3OC3CCOCC3)cn12 | IC50 | 100 to 500 nM |
| CN(c1cnccn1)S(=O)(=O)NC(=O)c1cnc2ccc(N3CCC[C@@H]3c3cc(F)ccc3F)cn12 | IC50 | ≤ 50 nM |
| CCN(C)S(=O)(=O)NC(=O)c1cnc2ccc(N3C[C@@H](F)C[C@@H]3c3cc(F)cc4c3OCCO4)cn12 | IC50 | 50 to 100 nM |
| Cc1nnc(N(C)S(=O)(=O)NC(=O)c2cnc3ccc(N4C[C@@H](F)C[C@@H]4c4cc(F)ccc4OC4CCOCC4)cn23)s1 | IC50 | 50 to 100 nM |

###

Overview of reported IC50 across a group of compounds:
Assayed system: TrkA kinase (Homo sapiens)
Construct: purchased Upstate, USA
Run description: In vitro TrkA inhibitory activity using TR-FRET assay
Assay type: biochemical
Reported conditions: 5 ng TrkA, 500 μM ATP, values given as bins, read-out: TrkA inhibition in-vitro IC50

| Compound | IC50 |
| --- | --- |
| CC(C)(C)S(=O)(=O)NC(=O)c1cnc2ccc(N3C[C@@H](F)C[C@@H]3c3cc(F)ccc3OCCF)cn12 | ≤ 50 nM |
| CCN(C)S(=O)(=O)NC(=O)c1cnc2ccc(N3C[C@@H](F)C[C@@H]3c3cc(F)ccc3OCCF)cn12 | ≤ 50 nM |
| O=C(O)CNC(=O)c1cnc2ccc(N3CCC[C@H]3c3cc(F)ccc3F)cn12 (single isomer, unassigned) | 100 to 500 nM |
| CCN(CC)S(=O)(=O)NC(=O)c1cnc2ccc(N3C[C@@H](F)C[C@@H]3c3cc(F)ccc3OC3CCOCC3)cn12 | ≤ 50 nM |
| CC1(S(=O)(=O)NC(=O)c2cnc3ccc(N4CCC[C@@H]4c4cc(F)ccc4F)cn23)CC1 | 50 to 100 nM |
| O=C(c1cnc2ccc(N3CCCC3c3cc(F)ccc3F)cn12)N1CC(O)C1 (centres unmarked) [Example 4] | ≤ 50 nM |
| CN(c1nccs1)S(=O)(=O)NC(=O)c1cnc2ccc(N3C[C@@H](F)C[C@@H]3c3cc(F)ccc3O[C@@H]3CCOC3)cn12 | ≤ 50 nM |
| C[C@@H](CO)NC(=O)c1cnc2ccc(N3CCC[C@@H]3c3cc(F)ccc3F)cn12 | 100 to 500 nM |
| CCCN(C)S(=O)(=O)NC(=O)c1cnc2ccc(N3C[C@@H](F)C[C@@H]3c3cc(F)ccc3O[C@@H]3CCOC3)cn12 | ≤ 50 nM |
| CCN(CC)S(=O)(=O)NC(=O)c1cnc2ccc(N3C[C@@H](F)C[C@@H]3c3cc(F)ccc3O[C@@H]3CCOC3)cn12 | ≤ 50 nM |
| CC(C)(C)S(=O)(=O)NC(=O)c1cnc2ccc(N3CCC[C@@H]3c3cc(F)ccc3F)cn12 | 100 to 500 nM |
| CCN(CCF)S(=O)(=O)NC(=O)c1cnc2ccc(N3C[C@@H](F)C[C@@H]3c3cc(F)ccc3OC3CCOCC3)cn12 | ≤ 50 nM |
| CN(c1nncs1)S(=O)(=O)NC(=O)c1cnc2ccc(N3C[C@@H](F)C[C@@H]3c3cc(F)ccc3OC3CCOCC3)cn12 | ≤ 50 nM |
| CCN(CCF)S(=O)(=O)NC(=O)c1cnc2ccc(N3CCC[C@@H]3c3cc(F)ccc3F)cn12 | 50 to 100 nM |

###

Assayed system: TrkA kinase (Homo sapiens, UniProt P04629)
Construct: purchased Upstate, USA
Run description: In vitro TrkA inhibitory activity using TR-FRET assay
Format: biochemical
Reported conditions: bin with mixed units (lower bound nM, upper bound μM), read-out: TrkA inhibitory activity in-vitro IC50
Overview of reported IC50 across a group of molecules:

| Molecule | IC50 |
| --- | --- |
| O=C(NC12CC3CC(CC(O)(C3)C1)C2)c1cnc2ccc(N3CCC[C@@H]3c3cc(F)ccc3F)cn12 [Example 23] | 500 to 1000 nM |
| O=C(NN1CCCCC1)c1cnc2ccc(N3CCC[C@@H]3c3cc(F)ccc3F)cn12 [Example 27] | 500 to 1000 nM |
| CC1(O)CN(C(=O)c2cnc3ccc(N4CCC[C@@H]4c4cc(F)ccc4F)cn23)C1 [Example 26] | 500 to 1000 nM |

###

Overview of reported IC50 across a group of molecules:
Assayed system: TrkA kinase (Homo sapiens)
Construct: purchased Upstate, USA
Run description: In vitro TrkA inhibitory activity using TR-FRET assay
Format: biochemical
Reported conditions: 5 ng TrkA, 500 μM ATP, values given as bins, read-out: TrkA inhibition in-vitro IC50
Property name: IC50

| Molecule | Property name | Readout value |
| --- | --- | --- |
| O=C(NS(=O)(=O)c1ccc(-n2cncn2)cc1)c1cnc2ccc(N3CCC[C@@H]3c3cc(F)ccc3F)cn12 [Example 35] | IC50 | 50 to 100 nM |
| O=C(NS(=O)(=O)c1ccc(-n2ccnc2)nc1)c1cnc2ccc(N3CCC[C@@H]3c3cc(F)ccc3F)cn12 [Example 46] | IC50 | 50 to 100 nM |
| CN(c1cccnc1)S(=O)(=O)NC(=O)c1cnc2ccc(N3CCC[C@@H]3c3cc(F)ccc3F)cn12 [Example 43] | IC50 | ≤ 50 nM |
| CN(c1ccn(C)n1)S(=O)(=O)NC(=O)c1cnc2ccc(N3CCC[C@@H]3c3cc(F)ccc3F)cn12 [Example 90] | IC50 | ≤ 50 nM |
| CCCN(C)S(=O)(=O)NC(=O)c1cnc2ccc(N3CCC[C@@H]3c3cc(F)ccc3F)cn12 [Example 37] | IC50 | ≤ 50 nM |
| CN(c1ccccn1)S(=O)(=O)NC(=O)c1cnc2ccc(N3C[C@@H](F)C[C@@H]3c3cc(F)ccc3OC3CCOCC3)cn12 [Example 104] | IC50 | ≤ 50 nM |
| CCN(C)S(=O)(=O)NC(=O)c1cnc2ccc(N3C[C@@H](F)C[C@@H]3c3cc(F)ccc3O[C@@H]3CCOC3)cn12 [Example 60] | IC50 | ≤ 50 nM |

Attribution: patent US9394305B2
